method: Cytotoxicity in HeLa cells without addition of OC43 virus (in parallel)
run-parameters: human, HeLa cells, without OC43 virus
Reported values of CC50 at 6 days for individual entries

Known results for molecules:
molecule: CN(C(=O)[C@H](CC1CC1)NC(=O)C1(F)CC1)[C@@H](CC1CC1)C(=O)N1C[C@@]2(CC1C#N)Oc1ccccc1CNC2=O (stereo partly drawn)
CC50 at 6 days: > 10 µM
--
molecule: CN(C(=O)[C@H](CC(C)(C)C)n1cc(C2CC2)nn1)[C@@H](CC1CC1)C(=O)N1C[C@@]2(C[C@H]1C#N)Oc1cc(F)cc(F)c1NC2=O
CC50 at 6 days: > 10 µM

Okay, next one:
Answer with the recorded CC50 at 6 days of CN(C(=O)[C@H](CC1CC1)NC(=O)C(F)(F)F)[C@@H](CC1CC1)C(=O)N1C[C@@]2(C[C@H]1C#N)Oc1c(cccc1-c1ccccc1)NC2=O only.
> 10 µM

* * *

Here the recorded CC50 at 6 days is given for each entry.
method: Cytotoxicity in HeLa cells without addition of OC43 virus (in parallel)
run-parameters: human, HeLa cells, without OC43 virus

molecule: CN(C(=O)[C@H](CC1CC1)NC(=O)C(F)(F)F)[C@@H](CC1CC1)C(=O)N1C[C@@]2(C[C@H]1C#N)Oc1c(F)cc(F)cc1CNC2=O
CC50 at 6 days: > 10 µM
--
molecule: CN(C(=O)[C@@H]1CCN(C(=O)C(F)(F)F)C1)[C@@H](CC1CC1)C(=O)N1C[C@@]2(C[C@H]1C#N)Oc1cc(F)cc(F)c1NC2=O
CC50 at 6 days: > 10 µM

Next item in the queue.
Tell me CC50 at 6 days reported for CC(C)C[C@H](NC(=O)C(F)(F)F)C(=O)N(C)[C@@H](CC(C)C)C(=O)N1C[C@@]2(C[C@H]1C#N)Oc1cc(F)cc(F)c1NC2=O
> 10 µM

* * *

method: in vitro
run-parameters: human
Each entry below carries its recorded CC50.

molecule: CN(C(=O)[C@H](COC(C)(C)C)NC(=O)C(F)(F)F)[C@@H](CC1CC1)C(=O)N1C[C@@]2(C[C@H]1C#N)Oc1cc(F)cc(F)c1NC2=O
CC50: > 1000 nM

molecule: CN(C(=O)C(C)(C)NC(=O)C(F)(F)F)[C@@H](CC1CC1)C(=O)N1C[C@@]2(C[C@H]1C#N)Oc1cc(F)cc(F)c1NC2=O
CC50: > 1000 nM

Consider the additional molecule presented here.
Report CC50 for C[C@H](NC(=O)C(F)(F)F)C(=O)N[C@@H](CC1CC1)C(=O)N1C[C@@]2(C[C@H]1C#N)Oc1cccnc1NC2=O
> 1000 nM

* * *

Tested on: SARS-CoV-2 B.1.1.7 lineage
method: microbe, parasite or virus in culture
Format: cell-based
run-parameters: Severe acute respiratory syndrome coronavirus 2; Table C; SARS-CoV-2 B.1.1.7 in A549-dual_ACE2_TMPRSS2 cells, class symbols; read-out: A549-dual_ACE2_TMPRSS2 (EC50)
pEC50: −log10 of the molar value.
Measured pEC50 accompanies every entry in the list below.

Determine its reported pEC50: CC(C)C[C@@H](C(=O)N1C[C@]2(CC(c3ccccc3)=NNC2=O)C[C@H]1C#N)N(C)C(=O)c1cc2c(F)cc(F)c(F)c2[nH]1 [Example 30]
6.00 to 7.00

Using known records, supply pEC50 for C[C@H](NC(=O)C(F)(F)F)C(=O)N(C)[C@@H](CC1CC1)C(=O)N1C[C@@]2(C[C@H]1C#N)Oc1cccnc1NC2=O [Compound 84]
> 7.00

Give pEC50 for Cc1cn([C@@H](CC2CC2)C(=O)N(C)[C@@H](CC2CC2)C(=O)N2C[C@@]3(C[C@H]2C#N)Oc2cc(F)cc(F)c2NC3=O)nn1 [Compound 146]
6.00 to 7.00

Please give measured pEC50 of the following entry: CN(C(=O)[C@H](CC1CC1)NC(=O)C(F)(F)F)[C@@H](CC1CC1)C(=O)N1C[C@@]2(C[C@H]1C#N)Oc1cc(Cl)cc(F)c1NC2=O [Compound 59]
> 7.00

Consider the molecule C[C@H](NC(=O)C(F)(F)C(F)(F)F)C(=O)N(C)[C@@H](CC1CC1)C(=O)N1C[C@@]2(C[C@H]1C#N)Oc1cc(F)cc(F)c1NC2=O [Compound 95] and give its recorded pEC50.
> 7.00

Note pEC50 for the molecule shown: CN(C(=O)[C@H](CC1CC1)NC(=O)C(F)(F)F)[C@@H](CC1CC1)C(=O)N1C[C@@]2(C[C@H]1C#N)Oc1c(cccc1-c1ccccc1)NC2=O [Compound 125]
> 7.00

* * *

As shown below, each of these molecules has a reported EC50 value.
Tested on: SARS-CoV-2 B.1.1.7 lineage
method: microbe, parasite or virus in culture
Format: cell-based
run-parameters: Severe acute respiratory syndrome coronavirus 2; Table C; SARS-CoV-2 B.1.1.7 in A549-dual_ACE2_TMPRSS2 cells, class symbols; read-out: A549-dual_ACE2_TMPRSS2 (EC50)

Please review the following examples before continuing.
molecule: CN(C(=O)[C@H](CC1CC1)NC(=O)c1ccc(F)cc1)[C@@H](CC1CC1)C(=O)N1C[C@@]2(C[C@H]1C#N)Oc1ccccc1CNC2=O [Compound 161]
EC50: < 0.1 µM
--
molecule: CC(C)C[C@@H](C(=O)N1C[C@@]2(C[C@H]1C#N)Oc1ccccc1NC2=O)N(C)C(=O)c1cc2c(F)cc(F)cc2[nH]1 [Example 2]
EC50: 0.1 to 1 µM
--
molecule: CC(C)C[C@@H](C(=O)N1C[C@@]2(C[C@H]1C#N)Oc1cccnc1NC2=O)N(C)C(=O)[C@H](C)NC(=O)C(F)(F)F [Compound 65]
EC50: 0.1 to 1 µM
--
molecule: CN(C(=O)[C@H](CC1CC(F)(F)C1)NC(=O)C(F)(F)F)[C@@H](CC1CC1)C(=O)N1C[C@@]2(C[C@H]1C#N)Oc1cccnc1NC2=O [Compound 187]
EC50: 0.1 to 1 µM
--
molecule: CN(C(=O)[C@H](CC1CC1)NC(=O)C(F)(F)F)[C@@H](CC1CC1)C(=O)N1C[C@@]2(C[C@H]1C#N)Oc1ccc(F)cc1NC2=O [Compound 15]
EC50: < 0.1 µM

Given CC(C)C[C@@H](C(=O)N1C[C@@]2(C[C@H]1C#N)Oc1ccncc1NC2=O)N(C)C(=O)c1cc2c(F)cc(F)cc2[nH]1 [Example 3] , respond with its EC50.
1 to 10 µM

Please supply the value of reported EC50 for the item COC(=O)N[C@@H](CC1CC1)C(=O)N(C)[C@@H](CC1CC1)C(=O)N1C[C@@]2(C[C@H]1C#N)Oc1ncccc1NC2=O [Compound 214]
0.1 to 1 µM

Annotate the molecule C[C@H](NC(=O)C(F)(F)F)C(=O)N(C)[C@@H](CC(C)(C)C)C(=O)N1C[C@@]2(C[C@H]1C#N)Oc1cc(F)cc(F)c1NC2=O [Compound 62] with its measured EC50.
0.1 to 1 µM

* * *

study-system: UniProtKB P0DTD1
method: biochemical
run-parameters: Table A, class symbols, read-out: SARS-Cov-2 (IC50)
pIC50: −log10 of the molar value.
measure-name: pIC50

Field: example entries. Status: answers known.
compound: CC(C)C[C@@H](C(=O)N1C[C@]2(CC(C(C)C)NC2=O)C[C@H]1C#N)N(C)C(=O)[C@H](C)NC(=O)C(F)(F)F (stereo partly drawn) [Example 38]
pIC50: > 7.70
//
compound: CN(C(=O)[C@@H](Cc1cccnc1)NC(=O)C(F)(F)F)[C@@H](CC1CC1)C(=O)N1C[C@@]2(C[C@H]1C#N)Oc1cccnc1NC2=O [Compound 151]
pIC50: > 7.70

Pending compound:
Answer with the recorded pIC50 of CN(C(=O)[C@H](CC1CC1)n1cc(-c2ccccc2)nn1)[C@@H](CC1CC1)C(=O)N1C[C@@]2(C[C@H]1C#N)Oc1cc(F)cc(F)c1NC2=O [Compound 114] only.
> 7.70

* * *

Below, each entry is listed with its recorded pIC50.
study-system: SARS-Cov-2 3CLpro (Severe acute respiratory syndrome coronavirus 2, UniProt P0DTD1)
method: biochemical
run-parameters: Table A, class symbols, read-out: SARS-Cov-2 (IC50)
pIC50: −log10 of the molar value.

compound: CC(C)C[C@@H](C(=O)N1C[C@]2(C[C@H]1C#N)C(=O)Nc1ccccc1C2(F)F)N(C)C(=O)[C@H](C)NC(=O)C(F)(F)F
pIC50: 6.70 to 7.70

Complete the entry with pIC50 for CN(C(=O)c1cc2c(F)cc(F)c(F)c2[nH]1)[C@@H](CC1CC1)C(=O)N1C[C@@]2(C[C@H]1C#N)Oc1ccccc1CNC2=O
> 7.70

Answer with the recorded pIC50 of CC(C)C[C@@H](C(=O)N1C[C@@]2(C[C@H]1C#N)N=C(C1CC1)NC2=O)N(C)C(=O)[C@H](C)NC(=O)C(F)(F)F only.
6.70 to 7.70

Give the reported pIC50 for this compound. CC(C)C[C@@H](C(=O)N1CC2(C[C@H]1C#N)Cn1nccc1NC2=O)N(C)C(=O)[C@H](C)NC(=O)C(F)(F)F (some centres unmarked)
5.70 to 6.70

For the compound C[C@H](NC(=O)C(F)(F)F)C(=O)N[C@@H](CC1CC1)C(=O)N1C[C@@]2(C[C@H]1C#N)Oc1cccnc1NC2=O , report pIC50.
5.70 to 6.70
